These data points were gathered from ChEMBL document CHEMBL3045659.

pIC50: −log10 of the molar value.
pIC50 data for D-alanine--D-alanine ligase B (Escherichia coli K-12, UniProt P07862) follow.
OBSERVATION_TYPE: pIC50

1) O=c1cc(-c2ccc(O)cc2)oc2cc(O)cc(O)c12; 3.79
2) O=c1c(O)c(-c2ccc(O)c(O)c2)oc2cc(O)cc(O)c12; 4.70

----------
TARGET_OR_TEST_SYSTEM: D-alanine--D-alanine ligase (Helicobacter pylori (strain HPAG1))
Sequence (Q1CTD3 whole entry): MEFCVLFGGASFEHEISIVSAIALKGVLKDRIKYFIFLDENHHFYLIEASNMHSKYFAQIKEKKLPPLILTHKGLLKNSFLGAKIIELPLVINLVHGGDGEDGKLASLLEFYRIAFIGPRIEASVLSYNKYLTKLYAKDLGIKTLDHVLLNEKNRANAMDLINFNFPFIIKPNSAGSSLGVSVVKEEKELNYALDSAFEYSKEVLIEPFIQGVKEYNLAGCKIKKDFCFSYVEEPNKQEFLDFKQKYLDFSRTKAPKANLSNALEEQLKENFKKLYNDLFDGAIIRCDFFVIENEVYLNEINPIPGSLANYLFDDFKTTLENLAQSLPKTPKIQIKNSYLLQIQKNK
EXPERIMENT_DESCRIPTION: Competitive inhibition of Helicobacter pylori Ddl using ATP as substrate
OBSERVATION_TYPE: IC50 (µM)

1. O=c1cc(-c2ccc(O)cc2)oc2cc(O)cc(O)c12; 133
2. O=c1c(O)c(-c2ccc(O)c(O)c2)oc2cc(O)cc(O)c12; 48.5
